assay system: h5HT2B (Homo sapiens (Human), UniProt P41595)
Sequence (P41595 whole entry): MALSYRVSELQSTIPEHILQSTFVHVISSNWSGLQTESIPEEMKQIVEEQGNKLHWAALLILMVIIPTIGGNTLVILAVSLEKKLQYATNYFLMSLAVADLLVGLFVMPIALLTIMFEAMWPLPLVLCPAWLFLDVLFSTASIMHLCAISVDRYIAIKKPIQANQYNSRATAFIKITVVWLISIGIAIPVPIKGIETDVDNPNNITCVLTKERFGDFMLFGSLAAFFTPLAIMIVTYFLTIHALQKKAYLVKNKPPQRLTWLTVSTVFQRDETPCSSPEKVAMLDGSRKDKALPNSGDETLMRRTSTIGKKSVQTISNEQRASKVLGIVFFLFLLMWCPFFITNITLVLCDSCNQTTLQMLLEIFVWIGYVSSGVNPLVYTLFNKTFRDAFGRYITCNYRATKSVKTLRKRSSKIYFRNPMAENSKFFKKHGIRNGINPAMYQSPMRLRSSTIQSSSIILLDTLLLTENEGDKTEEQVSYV
experiment summary: h5HT2B binding
In this section, each of the compounds is paired with its reported Ki.

Consider the worked cases shown below.
| smiles code | observed value |
| --- | --- |
| Cc1cc(Oc2cc(Cl)ccc2O[C@H]2CCNC2)ccc1F | 170 nM |
| CC(C)c1ccc(Oc2cc(Cl)ccc2O[C@H]2CCNC2)cc1 | 1300 nM |
| Fc1ccc(Oc2cc(Cl)ccc2O[C@H]2CCNC2)cc1 | 500 nM |
| Clc1ccc(Oc2cc(Cl)ccc2O[C@H]2CCNC2)cc1 | 910 nM |

Shift focus to the following entry.
Incoming: What reported Ki corresponds to `Cc1ccc(Oc2cc(Cl)ccc2O[C@H]2CCNC2)cc1` on h5HT2B (Homo sapiens (Human), UniProt P41595)?
Outgoing: 130 nM
